Exercise: state measured TGI for each of the molecules provided.
- Tested on: SW-620 colon
- testSummary: NCI tumour cell line growth inhibition, 48 h

Indicate its recorded TGI; the molecule in question is `CS(=O)(=O)N(CCC#N)c1ccc(/C=C2\N=C(c3ccccc3Cl)OC2=O)cc1`
> 100 µM

Quick one: give measured TGI for `O=C(O)c1c2c(c(O)c3c1CN(C1CCCCC1)CO3)OCN(C1CCCCC1)C2`
52.5 µM

Input `c1ccc(CCCN2C3CCC2CN(CCOC(c2ccccc2)c2ccccc2)C3)cc1` , output reported TGI.
44.8 µM

Dear colleague, please send me the reported TGI for `CCOc1ccc2c(c1)[n+]([O-])c(-c1ccccc1)c(N)[n+]2[O-]` when you can.
> 100 µM

Give TGI for the following molecule: `Cc1cnoc1/N=C1\C=C(Nc2oncc2C)C(=O)c2ccccc21`
> 100 µM

Give me measured TGI, please, for this molecule: `CCOc1cc(/C=C/C(=O)CC(=O)/C=C/c2ccc(OC(=O)CNc3nc4ccc(OC)cc4s3)c(OCC)c2)ccc1OC(=O)CNc1nc2ccc(OC)cc2s1`
13.2 µM

Return reported TGI. Input molecule: O=[N+]([O-])C1=Cc2c(O)ccc(O)c2C2OC=CC12 (configuration not stated)
> 77.4 µM

Retrieve TGI measured for COC1C(OC(=O)/C=C/C=C/C=C/C=C/C(=O)O)CCC2(CO2)C1C1(C)OC1CC=C(C)C (configuration not stated) and print it.
> 100 µM

Assign TGI to the following record: `CN(C)C(=C1C(Br)=C(Br)C(Br)=C1Br)N(C)C`
> 100 µM

Write down TGI measured for item Cc1ccccc1NC(=O)C(=O)C(C1OC(=O)c2ccccc21)[N+](=O)[O-] (configuration not stated)
> 100 µM

Tell me its TGI given CCCCCCCCCCCCCOCCOCCOCCCCC(O)CCCCCCCCCC1=C[C@H](C)OC1=O (some centres not stated) as the entry.
76.9 µM

Assign TGI to the following record: `C[C@]12CC[C@H]3[C@@H](CC=C4C[C@@H](N5CCCC5)CC[C@@]43C)[C@@H]1C/C(=C\c1ccc([N+](=O)[O-])cc1)[C@@H]2O`
36.6 µM

Kindly indicate its recorded TGI. Item: `CC1=C[C@H](C[C@]2(C)c3c(c4c(C)cccc4oc3=O)O[C@@H]2C)OC1=O`
75 µM

Please supply the value of reported TGI for the item `O=C1CN=C(c2ccccc2)c2ccncc2N1`
> 100 µM

Tell me its TGI given `Cc1c2ccccc2c(/C=N/NC(=O)CSCC(=O)N/N=C/c2c3ccccc3c(C)c3ccccc23)c2ccccc12` as the entry.
> 100 µM

Give TGI for COc1cccc2c1C(=O)c1c(O)c3c(c(O)c1C2=O)C[C@@](O)(/C(C)=N/NC(=O)c1cccc([N+](=O)[O-])c1)C[C@@H]3OC1CC(N)C(O)C(C)O1 (some centres not stated)
9.4 µM

Quote TGI reported for `O=C1c2cccnc2S(=O)(=O)N1c1ccc(Br)cc1` please.
> 100 µM
